Molecular target: Integrin alpha-V/beta-3 (Homo sapiens, UniProt P05106+P06756)
Sequence (P05106 27-788 limits assumed): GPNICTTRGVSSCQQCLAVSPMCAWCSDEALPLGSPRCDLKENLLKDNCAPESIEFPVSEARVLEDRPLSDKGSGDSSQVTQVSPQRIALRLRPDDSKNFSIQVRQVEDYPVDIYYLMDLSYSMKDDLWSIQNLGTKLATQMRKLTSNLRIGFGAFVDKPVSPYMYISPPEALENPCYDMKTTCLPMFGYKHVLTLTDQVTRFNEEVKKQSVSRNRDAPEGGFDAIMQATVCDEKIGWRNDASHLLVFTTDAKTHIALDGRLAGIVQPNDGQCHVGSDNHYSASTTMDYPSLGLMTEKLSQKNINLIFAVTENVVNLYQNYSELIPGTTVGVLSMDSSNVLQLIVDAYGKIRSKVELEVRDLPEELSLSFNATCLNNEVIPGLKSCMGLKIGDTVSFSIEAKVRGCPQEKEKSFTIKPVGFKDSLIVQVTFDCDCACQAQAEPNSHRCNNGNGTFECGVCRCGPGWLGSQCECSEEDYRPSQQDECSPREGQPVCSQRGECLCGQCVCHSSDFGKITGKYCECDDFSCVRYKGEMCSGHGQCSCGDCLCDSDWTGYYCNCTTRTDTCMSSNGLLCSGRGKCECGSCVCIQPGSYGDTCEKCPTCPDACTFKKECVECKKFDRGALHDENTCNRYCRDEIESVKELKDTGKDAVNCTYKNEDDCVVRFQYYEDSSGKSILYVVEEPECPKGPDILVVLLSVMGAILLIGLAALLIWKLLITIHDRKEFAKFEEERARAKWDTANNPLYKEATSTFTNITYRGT
Sequence (P06756 31-889 limits assumed): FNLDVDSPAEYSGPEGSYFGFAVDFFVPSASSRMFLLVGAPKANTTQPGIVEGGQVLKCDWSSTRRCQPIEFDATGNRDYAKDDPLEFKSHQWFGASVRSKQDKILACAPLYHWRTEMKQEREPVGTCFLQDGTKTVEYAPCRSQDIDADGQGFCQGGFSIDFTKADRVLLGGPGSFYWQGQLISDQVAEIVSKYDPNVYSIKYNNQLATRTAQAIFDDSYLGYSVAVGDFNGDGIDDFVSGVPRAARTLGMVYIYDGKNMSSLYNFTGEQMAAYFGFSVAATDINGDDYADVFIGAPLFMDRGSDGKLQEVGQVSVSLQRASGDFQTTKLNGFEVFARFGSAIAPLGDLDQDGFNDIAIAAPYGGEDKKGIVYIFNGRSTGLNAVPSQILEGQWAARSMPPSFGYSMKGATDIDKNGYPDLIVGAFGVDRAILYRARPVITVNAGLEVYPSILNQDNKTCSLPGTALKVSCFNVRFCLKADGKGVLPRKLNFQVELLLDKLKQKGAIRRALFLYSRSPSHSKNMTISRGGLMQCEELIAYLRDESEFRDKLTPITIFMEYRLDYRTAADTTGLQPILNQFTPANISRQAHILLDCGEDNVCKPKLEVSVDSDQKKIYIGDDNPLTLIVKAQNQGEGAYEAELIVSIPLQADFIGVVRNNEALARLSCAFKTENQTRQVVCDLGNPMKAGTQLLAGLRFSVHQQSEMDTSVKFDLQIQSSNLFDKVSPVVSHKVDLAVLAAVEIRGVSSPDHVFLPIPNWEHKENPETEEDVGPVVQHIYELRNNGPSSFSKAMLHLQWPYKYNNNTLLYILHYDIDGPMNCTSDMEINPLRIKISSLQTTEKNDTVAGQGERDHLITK
Sequence (P06756 891-1048 limits assumed): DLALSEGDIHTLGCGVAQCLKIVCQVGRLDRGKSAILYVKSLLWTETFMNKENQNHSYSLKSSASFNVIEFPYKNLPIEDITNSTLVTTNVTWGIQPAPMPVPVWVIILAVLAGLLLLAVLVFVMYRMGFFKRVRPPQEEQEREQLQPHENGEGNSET
Test: Inhibition of Kistrin binding to integrin alphaV-beta3
pIC50: −log10 of the molar value.
MEASUREMENT_NAME: pIC50

Examples with answers:
MOLECULE	pIC50
N=C(N)NCCC[C@@H]1NC(=O)N(CC(=O)NCC(/N=C(\S)NCc2ccccc2)C(=O)O)C1=O (stereo partly drawn)	5.52
N=C(N)NCCC[C@@H]1NC(=O)N(CC(=O)NCC(NC(=O)NCc2ccccc2)C(=O)O)C1=O (stereo partly drawn)	6.24
O=C(CN1C(=O)N[C@@H](CCCNC2=NCCN2)C1=O)NCC(NC(=O)OCc1ccccc1)C(=O)O (stereo partly drawn)	7.70
N=C(N)NCCC[C@@H]1NC(=O)N(CC(=O)NCC(NC(=O)c2ccc3ccccc3c2)C(=O)O)C1=O (stereo partly drawn)	6.70
N=C(N)NC[C@@H]1NC(=O)N(CC(=O)NCC(NC(=O)OCc2ccccc2)C(=O)O)C1=O (stereo partly drawn)	4.82

A = O=C(CN1C(=O)N[C@@H](CCCNc2nc3ccccc3[nH]2)C1=O)NCC(NC(=O)OCc1ccccc1)C(=O)O (stereo partly drawn)
B = N=C(N)NCC[C@@H]1NC(=O)N(CC(=O)NCC(NC(=O)OCc2ccccc2)C(=O)O)C1=O (stereo partly drawn)
Among A and B , which shows a numerically higher pIC50 result? Response format: the label of the selected entry.
A

---

Target: Integrin alpha-IIb/beta-3 (Homo sapiens, UniProt P05106+P08514)
Sequence (P05106 27-788 limits assumed): as the sequence (P05106 27-788 limits assumed) above
Sequence (P08514 32-887 limits assumed): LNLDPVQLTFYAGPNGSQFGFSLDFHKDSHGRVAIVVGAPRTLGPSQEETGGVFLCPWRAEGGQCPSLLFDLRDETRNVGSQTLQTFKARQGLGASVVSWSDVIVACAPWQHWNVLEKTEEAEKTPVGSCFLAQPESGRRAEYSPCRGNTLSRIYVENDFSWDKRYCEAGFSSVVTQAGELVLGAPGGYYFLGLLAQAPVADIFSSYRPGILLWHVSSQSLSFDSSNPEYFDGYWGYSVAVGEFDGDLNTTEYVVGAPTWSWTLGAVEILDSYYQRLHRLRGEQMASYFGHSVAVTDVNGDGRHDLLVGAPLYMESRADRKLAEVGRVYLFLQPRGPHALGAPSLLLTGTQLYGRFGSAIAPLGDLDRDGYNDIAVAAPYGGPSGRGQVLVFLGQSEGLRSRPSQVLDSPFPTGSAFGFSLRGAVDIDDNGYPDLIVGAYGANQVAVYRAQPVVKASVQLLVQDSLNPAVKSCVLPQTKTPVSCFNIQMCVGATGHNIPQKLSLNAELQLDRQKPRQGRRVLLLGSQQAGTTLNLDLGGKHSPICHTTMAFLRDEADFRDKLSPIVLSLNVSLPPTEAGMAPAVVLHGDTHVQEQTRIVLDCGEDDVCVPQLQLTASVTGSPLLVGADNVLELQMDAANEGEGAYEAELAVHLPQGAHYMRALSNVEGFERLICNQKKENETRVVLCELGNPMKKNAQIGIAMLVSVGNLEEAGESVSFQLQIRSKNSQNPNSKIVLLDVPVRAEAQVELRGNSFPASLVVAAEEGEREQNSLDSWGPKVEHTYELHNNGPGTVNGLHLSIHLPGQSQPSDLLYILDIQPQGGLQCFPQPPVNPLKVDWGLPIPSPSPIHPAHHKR
Sequence (P08514 891-1039 limits assumed): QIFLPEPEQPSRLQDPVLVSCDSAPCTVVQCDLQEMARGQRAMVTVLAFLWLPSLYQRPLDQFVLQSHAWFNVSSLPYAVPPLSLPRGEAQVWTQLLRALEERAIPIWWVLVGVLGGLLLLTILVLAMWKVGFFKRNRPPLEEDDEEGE
Experiment: Inhibition of fibrinogen binding to integrin alphaIIb-beta3
MEASUREMENT_NAME: IC50 (µM)

COMPOUND	IC50 / µM
N=C(N)NC[C@@H]1NC(=O)N(CC(=O)NCC(NC(=O)OCc2ccccc2)C(=O)O)C1=O (some centres undefined)	10
N=C(N)NCCC[C@@H]1NC(=O)N(CC(=O)NCC(/N=C(\S)NCc2ccccc2)C(=O)O)C1=O (some centres undefined)	10
N=C(N)NCCC[C@@H]1NC(=O)N(CC(=O)NCC(NC(=O)c2ccc3ccccc3c2)C(=O)O)C1=O (some centres undefined)	0.2
CCCCS(=O)(=O)NC(CNC(=O)CN1C(=O)N[C@@H](CCCN=C(N)N)C1=O)C(=O)O (some centres undefined)	0.35

1 = N=C(N)NCCC[C@@H]1NC(=O)N(CC(=O)NCC(NC(=O)OCc2ccccc2)C(=O)O)C1=O (some centres undefined)
2 = N=C(N)NCC[C@@H]1NC(=O)N(CC(=O)NCC(NC(=O)OCc2ccccc2)C(=O)O)C1=O (some centres undefined)
Consider 1 and 2 . Which of these has its IC50 at a higher number? Write the label of whichever entry you select.
2
(2: 10 µM, 1: 2.4 µM)

---

Target: Integrin alpha-V/beta-3 (Homo sapiens, UniProt P05106+P06756)
Experiment: Inhibition of Kistrin binding to integrin alphaV-beta3
MEASUREMENT_NAME: IC50 (nM)

A = N=C(N)NCCC[C@@H]1NC(=O)N(CC(=O)NCC(NC(=O)OCc2ccccc2)C(=O)O)C1=O (stereo partly specified)
B = N=C(N)NCCC[C@@H]1NC(=O)N(CC(=O)NCC(NC(=O)CCc2ccccc2)C(=O)O)C1=O (stereo partly specified)
C = O=C(CN1C(=O)N[C@@H](CC(=O)NNC2=NCCN2)C1=O)NCC(NC(=O)OCc1ccccc1)C(=O)O (stereo partly specified)
Lab note: arrange the 3 molecules above from lowest to highest IC50. # format: label list in the order the request specifies
A, B, C
(A: 80 nM, B: 350 nM, C: 580 nM)

A = N=C(N)NCCCC[C@@H]1NC(=O)N(CC(=O)NCC(NC(=O)OCc2ccccc2)C(=O)O)C1=O (stereo partly specified)
B = O=C(CN1C(=O)N[C@@H](CCCNc2ncccn2)C1=O)NCC(NC(=O)OCc1ccccc1)C(=O)O (stereo partly specified)
C = O=C(C[C@@H]1NC(=O)N(CC(=O)NCC(NC(=O)OCc2ccccc2)C(=O)O)C1=O)NCc1nc2ccccc2[nH]1 (stereo partly specified)
// sort entries: IC50, high to low Form field (ranking): labels in requested order.
C, B, A
(C: 15000 nM, B: 1660 nM, A: 200 nM)

---

Target: Integrin alpha-IIb/beta-3 (Homo sapiens, UniProt P05106+P08514)
Assay: Inhibition of fibrinogen binding to integrin alphaIIb-beta3
pIC50: −log10 of the molar value.
MEASUREMENT_NAME: pIC50

MOLECULE	pIC50
N=C(N)NCCC[C@@H]1NC(=O)N(CC(=O)NCC(NC(=O)CCc2ccccc2)C(=O)O)C1=O (some centres undefined)	6.26

P = N=C(N)NCCCC[C@@H]1NC(=O)N(CC(=O)NCC(NC(=O)OCc2ccccc2)C(=O)O)C1=O (some centres undefined)
Q = N=C(N)NCCC[C@@H]1NC(=O)N(CC(=O)NCC(NC(=O)NCc2ccccc2)C(=O)O)C1=O (some centres undefined)
Hi, I'm comparing two records. Which one has the lower pIC50, P or Q ? In your reply, give the label of the chosen option.
P
(P: 6.07, Q: 6.74)

---

Target: Integrin alpha-IIb/beta-3 (Homo sapiens, UniProt P05106+P08514)
Assay: Inhibition of fibrinogen binding to integrin alphaIIb-beta3
MEASUREMENT_NAME: IC50

Previously resolved entries follow.
COMPOUND	IC50
O=C(CN1C(=O)N[C@@H](CC(=O)NNC2=NCCN2)C1=O)NCC(NC(=O)OCc1ccccc1)C(=O)O (stereo partly drawn)	> 10 µM
O=C(CN1C(=O)N[C@@H](CCCNc2ncccn2)C1=O)NCC(NC(=O)OCc1ccccc1)C(=O)O (stereo partly drawn)	> 10 µM

What measured IC50 goes with O=C(CN1C(=O)N[C@@H](CCCNc2nc3ccccc3[nH]2)C1=O)NCC(NC(=O)OCc1ccccc1)C(=O)O (stereo partly drawn) ?
> 10 µM

Provenance of the data: ChEMBL document CHEMBL1132762
